A collection of compounds and their measured CC50 at 264 h
# Assay Overview: in vitro
# Details: human, cem-c113 cells

Cc1cn([C@H]2C[C@H](N=[N+]=[N-])[C@@H](COP(=O)(O)OCCO[C@H]3O[C@H](CO)[C@@H](O)[C@H](O)[C@@H]3O)O2)c(=O)[nH]c1=O [CT 7624] : > 25 µM

(Q) Using the record for Cc1cn([C@H]2CC[C@@H](CO)O2)c(=O)[nH]c1=O [ddT, 2', 3'-dideoxy thymidine, reference compound] , state its measured CC50 at 264 h.
(A) < 25 µM

(Q) Respond only with CC50 at 264 h recorded for CCCCCCCCCCCCCCCCOP(=O)(OCCO[C@H]1O[C@H](CO)[C@@H](O)[C@H](O)[C@@H]1O)OC[C@H]1O[C@@H](n2cc(C)c(=O)[nH]c2=O)C[C@@H]1N=[N+]=[N-] (stereo partly drawn) [CT 7625]
(A) 28 µM

----------
reverse transcriptase activity in culture supernatant values by entry
# System: HIV virus; viral reverse transcriptase
# Assay Overview: inhibition of viral replication by microassay of the enzymatic activity of the viral reverse transcriptase in CEM culture supernatants
# Format: cell-based
# Set-up: unit not given here
# Details: 1 uM, D22

# example entries with known answers
CCCCCCCCCCCCCCCCOP(=O)(OC[C@H]1OC(O)[C@@H](O)[C@@H](O)[C@@H]1O)OC[C@H]1O[C@@H](n2cc(C)c(=O)[nH]c2=O)C[C@@H]1N=[N+]=[N-] (some centres unmarked) : 3900
Cc1cn([C@H]2CC[C@@H](CO)O2)c(=O)[nH]c1=O [ddT, 2', 3'-dideoxy thymidine, reference compound] : 350
Cc1cn([C@H]2C[C@H](N=[N+]=[N-])[C@@H](COP(=O)(O)OC[C@H]3OC(O)[C@@H](O)[C@@H](O)[C@@H]3O)O2)c(=O)[nH]c1=O (some centres unmarked) : 15000

(Q) Specify reported reverse transcriptase activity in culture supernatant for the molecule shown: Cc1cn([C@H]2C[C@H](N=[N+]=[N-])[C@@H](COP(=O)(O)OCCO[C@H]3O[C@H](CO)[C@@H](O)[C@H](O)[C@@H]3O)O2)c(=O)[nH]c1=O
(A) 26000

(Q) Fill in reported reverse transcriptase activity in culture supernatant for this entry: CCCCCCCCCCCCCCCCOP(=O)(OCCO[C@H]1O[C@H](CO)[C@@H](O)[C@H](O)[C@@H]1O)OC[C@H]1O[C@@H](n2cc(C)c(=O)[nH]c2=O)C[C@@H]1N=[N+]=[N-] (some centres unmarked)
(A) 48000

----------
# Tested on: HIV virus; viral reverse transcriptase
# Assay Overview: inhibition of viral replication by microassay of the enzymatic activity of the viral reverse transcriptase in CEM culture supernatants
# Type: cell-based
# Set-up: unit not given here
# Details: 0.2 uM, D19
Assay Endpoint: reverse transcriptase activity in culture supernatant
Could you keep your reply to the number by itself?

Check out these entries, answers already filled in.
CCCCCCCCCCCCCCCCOP(=O)(OC[C@H]1OC(O)[C@@H](O)[C@@H](O)[C@@H]1O)OC[C@H]1O[C@@H](n2cc(C)c(=O)[nH]c2=O)C[C@@H]1N=[N+]=[N-] (stereo partly shown) : 11000
CCCCCCCCCCCCCCCCOP(=O)(OCCO[C@H]1O[C@H](CO)[C@@H](O)[C@H](O)[C@@H]1O)OC[C@H]1O[C@@H](n2cc(C)c(=O)[nH]c2=O)C[C@@H]1N=[N+]=[N-] (stereo partly shown) : 25000
Cc1cn([C@H]2C[C@H](N=[N+]=[N-])[C@@H](COP(=O)(O)OCCO[C@H]3O[C@H](CO)[C@@H](O)[C@H](O)[C@@H]3O)O2)c(=O)[nH]c1=O : 24000

Now take the following molecule into account.
(Q) Give the value of reverse transcriptase activity in culture supernatant reported for the following: Cc1cn([C@H]2C[C@H](N=[N+]=[N-])[C@@H](COP(=O)(O)OC[C@H]3OC(O)[C@@H](O)[C@@H](O)[C@@H]3O)O2)c(=O)[nH]c1=O (stereo partly shown)
(A) 12000
